Measurement Notes: absolute recovery over vacuum-assisted evaporative concentration; higher = better recovery
Study Conditions: wastewater influent; enrichment method: VEC
We begin with a simple list: items and their reported absolute recovery.

                                   compound      quantity_kind  result
0  NC1=[NH+]CCN1Cc1ccc(Cl)nc1 [Imidacloprid-desnitro]  absolute recovery    103%
1  COc1ccc(CC[NH+](C)CCCC(C#N)(c2ccc(OC)c(OC)c2)C(C)C)cc1OC (stereo not given) [Verapamil]  absolute recovery   97.4%
2  CC(C)[NH2+]CC(O)c1ccc(NS(C)(=O)=O)cc1 (stereo not given) [Sotalol]  absolute recovery    103%
3  CN(C)C(=O)Nc1ccc(-n2nc(C(C)(C)C)oc2=O)c(Cl)c1 [Dimefuron]  absolute recovery    103%

absolute recovery lookup needed for C[NH+](C)CCC=C1c2ccccc2COc2ccc(CC(=O)[O-])cc21 [Olopatadine] , thanks.
102%
